molecular target: interaction between GST-MAGEA11 MHD and FAM-PCF11_4 peptide (MAGE-A11:PCF11) (Homo sapiens (Human)); experiment: TR-FRET dose response competition assay for disruption of MAGE-A11:PCF11 binding; settings: Table 5, dose response TR-FRET screening of 59 quinoline compounds against MAGE-A11:PCF11; read-out: TR-FRET IC50
In this section we review reported IC50 values for a set of molecules.

Record FC(F)(F)c1ccc2c(NCCCNCc3ccc[nH]3)ccnc2c1 [SJ000361105-1] , field IC50: 33 µM

Record CCCN(CCCNc1c2ccc(Cl)cc2nc2ccc(OC)cc12)Cc1ccc2[nH]ccc2c1 [SJ000522732-2] , field IC50: > 70 µM

Record Clc1cccc(-c2ccc(CNCCCNc3ccnc4cc(Cl)ccc34)o2)c1 [SJ000523069-1] , field IC50: > 70 µM

Record FC(F)(F)c1ccc2c(NCCCNCc3cc(Br)cs3)ccnc2c1 [SJ000521056-1] , field IC50: > 70 µM

Record FC(F)(F)Oc1cccc(CN(CCCCNc2ccnc3cc(Cl)ccc23)Cc2ccccc2)c1 [SJ000520457-1] , field IC50: > 70 µM

====

target: MAGE-A11:PCF11 (Homo sapiens (Human), UniProt P43364); assay: TR-FRET single point screening at 15 μM; assay type: binding; design: unit not given here; conditions: single point TR-FRET screening at 15 μM against MAGE-A11:PCF11
Sequence (P43364 218-429): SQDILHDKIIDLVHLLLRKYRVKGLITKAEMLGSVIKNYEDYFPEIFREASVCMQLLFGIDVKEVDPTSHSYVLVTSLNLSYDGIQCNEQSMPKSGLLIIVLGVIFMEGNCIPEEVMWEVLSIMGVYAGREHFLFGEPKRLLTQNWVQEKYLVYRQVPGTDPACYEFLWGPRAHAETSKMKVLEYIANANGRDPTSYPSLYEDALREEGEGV
Label -1 if TR-FRET signal falls below 4; label 1 in every other case.

*Q* Could you verify whether the entry `CN1CCN(c2c(S(=O)(=O)c3ccc(Cl)cc3)cnc3ccccc23)CC1` shows TR-FRET signal of no less than 4?
*A* -1

*Q* Could you verify whether the entry `CCOC(=O)c1ccc2ncc(C(=O)OCC)c(NCCN3CCOCC3)c2c1` shows TR-FRET signal of no less than 4?
*A* -1

*Q* Could you verify whether the entry `COc1ccccc1CN1CCC(Nc2ccnc3cc(Cl)ccc23)CC1` shows TR-FRET signal of no less than 4?
*A* 1

*Q* Could you verify whether the entry `COc1cccc(F)c1CN(CCCCNc1ccnc2cc(Cl)ccc12)Cc1ccccc1` shows TR-FRET signal of no less than 4?
*A* 1

====

molecular target: interaction between GST-MAGEA11 MHD and FAM-PCF11_4 peptide (MAGE-A11:PCF11) (Homo sapiens (Human), UniProt P43364); experiment: TR-FRET dose response competition assay for disruption of MAGE-A11:PCF11 binding; conditions: Dose response TR-FRET screening of nine scaffold groups against MAGE-A11:PCF11; read-out: consensus IC50
Sequence (P43364 218-429): as above
endpoint: IC50 (µM)
# number only, unit µM dropped from output

Cn1c(=O)c2nc(-c3ccccc3)[nH]c2n(C)c1=O [SJ000288094-2]
69.9

Record Cc1ccc(Nc2nc(N)c3ccccc3n2)cc1Cl [SJ000201287-1] , field IC50: 69.9

Record CCn1c2ccccc2c2cc(C(C)NC=O)ccc21 (centres unmarked) [SJ000461805-1] , field IC50: 69.9

Record C=CCn1c(=O)c2c(nc(-c3ccc(S(=O)(=O)O)cc3)n2C)n(C)c1=O [SJ000287614-4] , field IC50: 75.1

Record CCCOc1ccc(-c2nc3c(c(=O)[nH]c(=O)n3Cc3ccccc3)n2CCO)cc1OCC [SJ000381474-1] , field IC50: 69.9

====

target: MAGE-A11:PCF11 (Homo sapiens (Human)); assay: TR-FRET single point screening at 15 μM; format: binding; parameters: unit not given here; settings: single point TR-FRET screening of quinoline compounds against MAGE-A11:PCF11; 15 μM
Label scheme for TR-FRET signal: low value = under 6, medium value = from 6 up to 30, high value = 30 and over

Completed entries (count: 4):
CCCN(CCCNc1ccnc2cc(Cl)ccc12)Cc1ncc[nH]1
low value
FC(F)(F)c1ccc(-c2ccc3c(NCCCNCc4ccco4)ccnc3c2)cc1
high value
Fc1ccc(-c2ccc3c(NCCCNCc4ccco4)ccnc3c2)cc1
medium value
CCCN(CCCNc1ccnc2cc(Cl)ccc12)Cc1ccccn1
low value

*Q* Quick check: band for `CCCN(CCCNc1ccnc2cc(C(F)(F)F)ccc12)Cc1cccc2ccccc12`
*A* medium value

*Q* Quick check: band for `FC(F)(F)c1cc(-c2ccc3c(NCCCNCc4ccco4)ccnc3c2)cc(C(F)(F)F)c1`
*A* high value

*Q* Quick check: band for `CCCN(CCCNc1ccnc2cc(C(F)(F)F)ccc12)Cc1cccc(F)c1`
*A* medium value

====

target: interaction between GST-MAGEA11 MHD and FAM-PCF11_4 peptide (MAGE-A11:PCF11) (Homo sapiens (Human)); assay: TR-FRET dose response competition assay for disruption of MAGE-A11:PCF11 binding; conditions: Table 8, representative compounds; read-out: TR-FRET IC50
In this section we review reported pIC50 values for a set of molecules.
Remember the convention: pIC50 equals -log10 of concentration in molar.

Record `COc1cccc(CNCCCNc2ccnc3cc(Oc4ccc(F)cc4)ccc23)c1O` , field pIC50: 4.21

Record COC1CCCC(CNCCCNc2ccnc3cc(Cc4ccc(C#N)cc4)ccc23)C1O (stereo not drawn) , field pIC50: 4.29

Record `c1ccc(Oc2ccc3c(NCCCNCc4cccc5c4OCO5)ccnc3c2)cc1` , field pIC50: 4.52

Record `Cc1cc(C)cc(Cc2ccc3c(NCCCNCc4cccc5c4OCO5)ccnc3c2)c1` , field pIC50: 4.79

Record `Fc1ccc(Cc2ccc3c(NCCCNCc4cccc5c4OCO5)ccnc3c2)cc1` , field pIC50: 4.37

Record `COc1ccc(F)cc1CNCCCNc1ccnc2cc(CCC(C)C)ccc12` , field pIC50: 4.16

Record `COc1cccc(CNCCCNc2ccnc3cc(Oc4cccc(N(C)C)c4)ccc23)c1O` , field pIC50: 4.16

Record `CC(C)(C)c1ccc(Oc2ccc3c(NCCCNCc4cccc5c4OCO5)ccnc3c2)cc1` , field pIC50: 5.06

====

target: interaction between GST-MAGEA11 MHD and FAM-PCF11_4 peptide (MAGE-A11:PCF11) (Homo sapiens (Human)); assay: TR-FRET dose response competition assay for disruption of MAGE-A11:PCF11 binding; conditions: Dose response TR-FRET screening of nine scaffold groups against MAGE-A11:PCF11; read-out: consensus IC50
In this section we review reported pIC50 values for a set of molecules.
Remember the convention: pIC50 equals -log10 of concentration in molar.

COc1ccc(-c2nc(S(=O)(=O)c3ccc(C)cc3)c(N3CCOCC3)o2)cc1 [SJ000245271-1]
4.16
COc1ccc(F)cc1CNCCCNc1ccnc2cc(C(F)(F)F)ccc12 [SJ000521052-1]
4.16
COC(=O)Cn1cnc2cc(-c3ccc(Cl)cc3)sc2c1=O [SJ000418500-1]
4.16
Cc1ccc(S(=O)(=O)c2nc(-c3cccc(C)c3)oc2N2CCOCC2)cc1 [SJ000027480-1]
4.95
CCCOc1ccc(C2Nc3ccccc3C(=O)N2CCCN2CCOCC2)cc1 (stereo not drawn) [SJ000803758-1]
4.14
COc1ccccc1Nc1nc(N)c2ccccc2n1 [SJ000192505-1]
4.16
C=C(C)Cn1cnc2cc(-c3ccc(Cl)cc3)sc2c1=O [SJ000456507-1]
4.16
COc1cccc(CNCCCNc2ccnc3cc(-c4ccc5c(c4)OCO5)ccc23)c1O [SJ000311291-1]
4.61
COc1ccc(CN2C(=O)c3ccccc3NC2c2ccc([N+](=O)[O-])cc2)cc1 (stereo not drawn) [SJ000510745-1]
4.16
N#Cc1cccc(CNCCCNc2ccnc3cc(Cl)ccc23)c1 [SJ000523063-1]
4.16

Record Fc1ccc(-c2ccc3c(NCCCNCc4cccc5c4OCO5)ccnc3c2)cc1 [SJ000311240-1] , field pIC50: 4.60

Record COc1ccc(F)cc1CNCCCNc1ccnc2cc(C3CCCCC3)ccc12 [SJ000311265-1] , field pIC50: 4.62

Record Cc1ccccc1CNC(=O)Cn1cnc2cc(-c3ccccc3)sc2c1=O [SJ000453315-1] , field pIC50: 4.16

Record C=CCN(CC=C)C(=O)Cn1cnc2cc(-c3ccc(OC)cc3)sc2c1=O [SJ000431447-1] , field pIC50: 4.16

Record FC(F)(F)c1ccccc1CNCCCNc1ccnc2cc(Cl)ccc12 [SJ000520908-2] , field pIC50: 4.16

Record COc1ccc(F)cc1CNCCCNc1ccnc2cc(-c3cc(C(F)(F)F)cc(C(F)(F)F)c3)ccc12 [SJ000311273-1] , field pIC50: 5.11

Record COc1ccc(F)cc1CNCCCNc1ccnc2cc(-c3ccccc3)ccc12 [SJ000311285-1] , field pIC50: 4.55

Record CN(Cc1ccno1)C(=O)c1ccc2c(c1)c1ccccc1n2C [SJ000516830-1] , field pIC50: 4.16
